pIC50 values, listed per item
molecular target: beta-catenin/TCF4 engagement (Homo sapiens, UniProt P35222); construct: expressed in transfected cells; host or cells: HEK293; experiment: Nano-BRET target engagement assay (B-cat-Halo & TCF4-Luc in HEK293 cells); type: cell-based; details: read-out: NanoBRET Abs IC50
pIC50: −log10 of the molar value.
Observed property: pIC50

Molecule	Observed property	Sign	Reading
CC(=O)N1CCC[C@]12CC=CCCCC1(CCCC=CCCCOC(=O)N3CC[C@@](C(=O)N[C@@H](Cc4ccsc4)C(=O)N[C@@H](Cc4csc5ccccc45)C(=O)N[C@@H](CCC(N)=O)C(N)=O)(C3)NC(=O)[C@H](Cn3cc(CN4CCOCC4)nn3)NC(=O)[C@H](Cc3ccccc3)NC(=O)[C@H](C)NC(=O)[C@H](C)NC(=O)[C@H](CN(CC(=O)O)CC(F)(F)F)NC(=O)[C@H](CC(=O)O)NC1=O)NC(=O)[C@H](CC(C)(C)C)NC(=O)[C@H](CC(=O)O)NC2=O (stereo partly drawn) [I-1867]	pIC50	=	4.79
CC(=O)N1CCC[C@]12CCCCC1(CCCCCCCOC(=O)N3CC[C@@](C(=O)N[C@@H](Cc4ccsc4)C(=O)N[C@@H](Cc4csc5ccccc45)C(=O)N[C@@H](CCC(N)=O)C(N)=O)(C3)NC(=O)[C@H](CC(C)C)NC(=O)[C@H](Cc3ccccc3)NC(=O)[C@H](C)NC(=O)[C@H](C)NC(=O)[C@H](CC(=O)O)NC(=O)[C@H](CC(=O)O)NC1=O)NC(=O)[C@H](CC(C)(C)C)NC(=O)[C@H](CC(=O)O)NC2=O (stereo partly drawn)	pIC50	<	4.70
CCCCCCSSCCOC(=O)C[C@@H]1NC(=O)C2(CCCC=CCCCOC(=O)N3CC[C@@](C(=O)N[C@@H](Cc4ccsc4)C(=O)N[C@@H](Cc4csc5ccccc45)C(=O)N[C@@H](CCC(N)=O)C(N)=O)(C3)NC(=O)[C@H](CC(C)C)NC(=O)[C@H](Cc3ccccc3)NC(=O)[C@H](C)NC(=O)[C@H](C)NC(=O)[C@H](CC(=O)O)NC1=O)CCCC=CC[C@]1(CCCN1C(C)=O)C(=O)N[C@@H](CC(=O)O)C(=O)N[C@@H](CC(C)(C)C)C(=O)N2 (stereo partly drawn)	pIC50	<	4.70
CC(=O)N1CCC[C@]12CC=CCCCC1(CCCC=CCCCOC(=O)N3CC[C@@](C(=O)N[C@@H](Cc4ccsc4)C(=O)N[C@@H](Cc4csc5ccccc45)C(=O)N[C@H](C)C(N)=O)(C3)NC(=O)[C@H](CC(C)C)NC(=O)[C@H](Cc3ccccc3)NC(=O)[C@H](C)NC(=O)[C@H](C)NC(=O)[C@H](Cc3cccc(C(=O)O)c3)NC(=O)[C@H](CC(=O)O)NC1=O)NC(=O)[C@H](CC(C)(C)C)NC(=O)[C@H](CC(=O)O)NC2=O (stereo partly drawn)	pIC50	=	5.23
CC(=O)N1CCC[C@]12CC=CCCCC1(CCCC=CCCCOC(=O)N3CC[C@@](C(=O)N[C@@H](Cc4cccc(Cl)c4)C(=O)N[C@@H](Cc4csc5ccccc45)C(=O)N[C@@H](CCC(N)=O)C(N)=O)(C3)NC(=O)[C@H](CC(N)=O)NC(=O)[C@H](Cc3ccccc3)NC(=O)[C@H](C)NC(=O)[C@H](C)NC(=O)[C@H](CN(CC(=O)O)CC(F)(F)F)NC(=O)[C@H](CC(=O)O)NC1=O)NC(=O)[C@H](CC(C)(C)C)NC(=O)[C@H](CC(=O)O)NC2=O (stereo partly drawn)	pIC50	=	4.70
CC(=O)N1CCC[C@]12CC=CCCCC1(CCCC=CCCCCOC(=O)N3CC[C@@](C(=O)N[C@@H](Cc4ccsc4)C(=O)N[C@@H](Cc4csc5ccccc45)C(=O)N[C@@H](Cc4c[nH]cn4)C(=O)N[C@H](C)C(N)=O)(C3)NC(=O)[C@H](CC(N)=O)NC(=O)[C@H](Cc3ccccc3)NC(=O)[C@H](C)NC(=O)[C@H](C)NC(=O)[C@H](CC(=O)O)NC(=O)[C@H](CC(=O)O)NC1=O)NC(=O)[C@H](CC(C)(C)C)NC(=O)[C@H](CC(=O)O)NC2=O (stereo partly drawn) [I-833]	pIC50	=	4.32
CC(=O)N1CCC[C@]12CC=CCCCC1(CCCC=CCCCCCC[C@@](C)(C(=O)N[C@@H](Cc3ccccc3Cl)C(=O)N[C@@H](Cc3csc4ccccc34)C(=O)N[C@@H](CCC(N)=O)C(N)=O)NC(=O)[C@H]([C@@H](C)O)NC(=O)[C@H](Cc3ccccc3)NC(=O)[C@H](C)NC(=O)[C@H](C)NC(=O)[C@H](CCC(=O)O)NC(=O)[C@H](CC(=O)O)NC1=O)NC(=O)[C@H](CC(C)(C)C)NC(=O)[C@H](CC(=O)O)NC2=O (stereo partly drawn) [I-1088]	pIC50	=	5.20
CC(=O)N1CCC[C@]12CC=CCCCC1(CCCC=CCCCOC(=O)N3CC[C@@](C(=O)N[C@@H](Cc4ccsc4)C(=O)N[C@@H](Cc4csc5ccccc45)C(=O)N[C@@H](CCS(C)(=O)=O)C(N)=O)(C3)NC(=O)[C@H](CC(C)C)NC(=O)[C@H](Cc3ccccc3)NC(=O)[C@H](C)NC(=O)[C@H](C)NC(=O)[C@H](Cc3cccc(C(=O)O)c3)NC(=O)[C@H](CC(=O)O)NC1=O)NC(=O)[C@H](CC(C)(C)C)NC(=O)[C@H](CC(=O)O)NC2=O (stereo partly drawn)	pIC50	=	5.72
CC(=O)N1CCC[C@]12CC=CCCCC1(CCCC=CCCCCCC[C@@](C)(C(=O)N[C@@H](Cc3ccccc3Cl)C(=O)N[C@@H](Cc3csc4ccccc34)C(=O)N[C@@H](CCC(N)=O)C(N)=O)NC(=O)[C@H]([C@@H](C)O)NC(=O)[C@H](Cc3ccccc3)NC(=O)[C@H](C)NC(=O)[C@H](C)NC(=O)[C@H](CC(=O)O)NC(=O)[C@H](CC(=O)O)NC1=O)NC(=O)[C@H](CC(C)(C)C)NC(=O)[C@H](CC(=O)O)NC2=O (stereo partly drawn) [I-1087]	pIC50	=	5.03

* * *

Molecular target: full-length beta-Catenin (Uniprot ID P35222) (Homo sapiens)
Construct: 10 nM full-length beta-Catenin (Uniprot ID P35222)
Sequence (P35222 1-781): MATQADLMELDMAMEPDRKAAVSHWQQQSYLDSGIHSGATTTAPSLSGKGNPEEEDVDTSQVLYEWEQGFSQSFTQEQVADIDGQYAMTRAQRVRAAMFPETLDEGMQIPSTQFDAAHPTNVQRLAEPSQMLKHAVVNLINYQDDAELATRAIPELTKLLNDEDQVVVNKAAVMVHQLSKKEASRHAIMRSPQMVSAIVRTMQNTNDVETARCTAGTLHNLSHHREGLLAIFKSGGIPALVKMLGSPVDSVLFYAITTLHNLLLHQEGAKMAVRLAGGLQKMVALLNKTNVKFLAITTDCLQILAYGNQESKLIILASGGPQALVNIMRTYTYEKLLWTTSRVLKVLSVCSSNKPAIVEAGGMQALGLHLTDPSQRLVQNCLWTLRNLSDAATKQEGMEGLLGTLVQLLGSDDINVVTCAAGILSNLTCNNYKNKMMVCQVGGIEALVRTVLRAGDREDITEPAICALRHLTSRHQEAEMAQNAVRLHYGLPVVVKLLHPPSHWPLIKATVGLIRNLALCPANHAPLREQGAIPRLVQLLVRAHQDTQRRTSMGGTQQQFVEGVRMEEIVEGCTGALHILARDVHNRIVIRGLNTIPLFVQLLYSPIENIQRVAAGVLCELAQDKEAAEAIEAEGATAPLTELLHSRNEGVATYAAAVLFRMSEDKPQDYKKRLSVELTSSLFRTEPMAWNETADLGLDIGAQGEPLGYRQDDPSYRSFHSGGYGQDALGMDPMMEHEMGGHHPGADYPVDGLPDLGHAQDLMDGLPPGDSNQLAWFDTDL
Test: Fluorescence polarization IC50 (beta-catenin / 5FAM-TCF4 10-53 competition)
Format: binding
Settings: fluorescence polarization; read-out: beta-Catenin FP IC50
pIC50: −log10 of the molar value. Non-standard residues stand in square brackets, D forms with d. Residues, ends and D or L forms follow the SMILES beside them. Bta = N[C@@H](Cc1csc2ccccc12)C(=O)O; tBuAla = CC(C)(C)C[C@H](N)C(=O)O; 3Thi = N[C@@H](Cc1ccsc1)C(=O)O; αMeP = C[C@@]1(C(=O)O)CCCN1; Aib = CC(C)(N)C(=O)O
Label condition met when pIC50 is at or above 7; otherwise label condition not met.

Molecule	Assigned class
CC(=O)N1CCC[C@]12CC=CCCCC1(CCCC=CCCCOC(=O)N3CC[C@@](C(=O)N[C@@H](Cc4ccccc4Cl)C(=O)N[C@@H](Cc4csc5ccccc45)C(=O)N[C@@H](CCC(N)=O)C(N)=O)(C3)NC(=O)[C@H](Cc3cccc(C(F)(F)F)c3)NC(=O)[C@H](Cc3ccccc3)NC(=O)[C@H](C)NC(=O)[C@H](C)NC(=O)[C@H](CC(=O)O)NC(=O)[C@H](CC(=O)O)NC1=O)NC(=O)[C@H](CC(C)(C)C)NC(=O)[C@H](CC(=O)O)NC2=O (stereo partly drawn) [I-1368]	condition met
CC(=O)N1CCC[C@]12CC=CCCCC1(CCCC=CCCCOC(=O)N3CC[C@@](C(=O)N[C@@H](Cc4ccccc4Cl)C(=O)N[C@@H](Cc4csc5ccccc45)C(=O)N[C@H](C)C(N)=O)(C3)NC(=O)[C@H](C)NC(=O)[C@H](Cc3ccccc3)NC(=O)[C@H](C)NC(=O)[C@H](C)NC(=O)[C@H](Cc3cccc(C(=O)O)c3)NC(=O)[C@H](CC(=O)O)NC1=O)NC(=O)[C@H](CC(C)(C)C)NC(=O)[C@H](CC(=O)O)NC2=O (stereo partly drawn) [I-2026]	condition met
CC(=O)N1CCC[C@]12CC=CCCCC1(CCCC=CCCCCCC[C@@](C)(C(=O)N[C@@H](Cc3ccsc3)C(=O)N[C@@H](Cc3csc4ccccc34)C(=O)N[C@@H](Cc3c[nH]cn3)C(N)=O)NC(=O)[C@H](CC(N)=O)NC(=O)[C@H](Cc3ccccc3)NC(=O)[C@H](C)NC(=O)[C@H](C)NC(=O)[C@H](CN(CC(=O)O)CC(F)(F)F)NC(=O)[C@H](CC(=O)O)NC1=O)NC(=O)[C@H](CC1CCCCC1)NC(=O)[C@H](CC(=O)O)NC2=O (stereo partly drawn) [I-709]	condition met
CC(=O)N1CCC[C@]12CC=CCCCC1(CCCC=CCCCOC(=O)N3CC[C@@](C(=O)N[C@@H](Cc4ccsc4)C(=O)N[C@@H](Cc4csc5ccccc45)C(=O)N[C@@H](CCC(N)=O)C(N)=O)(C3)NC(=O)[C@H]([C@@H](C)O)NC(=O)[C@H](Cc3ccccc3)NC(=O)[C@H](C)NC(=O)[C@H](C)NC(=O)[C@H]([C@@H](C)O)NC(=O)[C@H](CC(=O)O)NC1=O)NC(=O)[C@H](CC(C)(C)C)NC(=O)[C@H](CC(=O)O)NC2=O (stereo partly drawn) [I-1166]	condition met
CC(C)C[C@@H]1NC(=O)[C@H](Cc2ccccc2)NC(=O)[C@H](C)NC(=O)[C@H](C)NC(=O)[C@H](Cc2cccc(C(=O)O)c2)NC(=O)[C@H](CC(=O)O)NC(=O)C2(CCCC=CCCCOC(=O)N3CC[C@@](C(=O)N[C@@H](Cc4ccccc4Cl)C(=O)N[C@@H](Cc4csc5ccccc45)C(=O)N[C@@H](CCC(N)=O)C(N)=O)(C3)NC1=O)CCCC=CCCCC(=O)N1CCC[C@@H]1C(=O)N[C@@H](CC(=O)O)C(=O)N[C@@H](CC(C)(C)C)C(=O)N2 (stereo partly drawn) [I-1985]	condition not met
CC(=O)N1CCC[C@]12CC=CCCCC1(CCCC=CCCCOC(=O)N3CC[C@@](C(=O)N[C@@H](Cc4ccsc4)C(=O)N[C@@H](Cc4csc5ccccc45)C(=O)N[C@@H](CCC(N)=O)C(N)=O)(C3)NC(=O)[C@H](CCC(=O)NCc3ccccc3)NC(=O)[C@H](Cc3ccccc3)NC(=O)[C@H](C)NC(=O)[C@H](C)NC(=O)[C@H](CN(CC(=O)O)CC(F)(F)F)NC(=O)[C@H](CC(=O)O)NC1=O)NC(=O)[C@H](CC(C)(C)C)NC(=O)[C@H](CC(=O)O)NC2=O (stereo partly drawn) [I-1942]	condition met
CC[C@H](C)[C@@H]1NC(=O)[C@H](CC(=O)O)NC(=O)[C@]2(CC=CCCCC3(CCCC=CCCCCCC[C@@](C)(C(=O)N[C@@H](Cc4ccccc4)C(=O)N[C@@H](Cc4csc5ccccc45)C(=O)N[C@@H](CCC(N)=O)C(N)=O)NC(=O)[C@H](CCC(N)=O)NC(=O)[C@H](Cc4ccccc4)NC(=O)[C@H](C)NC(=O)[C@H](C)NC(=O)[C@H](CN(CC(=O)O)CC(F)(F)F)NC(=O)[C@H](CC(=O)O)NC3=O)NC1=O)CCCN2C(C)=O (stereo partly drawn) [I-610]	condition met
CC(=O)N1CCC[C@@]1(C)C(=O)N[C@@H](CC(=O)O)C(=O)N[C@@H](CC(C)(C)C)C(=O)NC(C)(C)C(=O)N[C@@H](CC(=O)O)C(=O)N[C@@H](CC(=O)O)C(=O)N[C@@H](C)C(=O)N[C@@H](C)C(=O)N[C@@H](Cc1ccccc1)C(=O)N[C@@H](CCC(N)=O)C(=O)NC(C)(C)C(=O)N[C@@H](Cc1ccsc1)C(=O)N[C@@H](Cc1csc2ccccc12)C(=O)N[C@@H](Cc1c[nH]cn1)C(=O)N[C@@H](CCCCN)C(N)=O [I-2231] (Ac-[αMeP]D[tBuAla][Aib]DDAAFQ[Aib][3Thi][Bta]HK-NH2)	condition not met
